// data source = the supplement of paper PMC4932681

# Tested on: ZR-75-1 Tam2
# experimental-protocol: drug sensitivity score (DSS) (DSS (dimensionless)); higher = more sensitive; extreme values may be limits of the assay
# particulars: 4-OH-tamoxifen in medium 1 µM; 72 h
Quick list: drug sensitivity score per entry.
The answer should be a number; do not append a unit.

Consider the following illustrative entries.
CC[C@@]1(O)C(=O)OCc2c1cc1n(c2=O)Cc2cc3c(CN(C)C)c(O)ccc3nc2-1: 4.55
COc1cc(OC2CCN(C)CC2)ccc1Nc1ncc2c(n1)n(C1CCCC1)c(=O)n2C: 0.671
N.N.[Cl][Pt][Cl] [Cisplatin]: 0
O=C1NC(=O)[C@@H](c2cn3c4c(cccc24)CCC3)[C@@H]1c1c[nH]c2ccccc12: 0
CCCCCOC(=O)Nc1nc(=O)n([C@@H]2O[C@H](C)[C@@H](O)[C@H]2O)cc1F: 0.0192
C[C@@H]1C=C2C(=O)O[C@@H]3CC[C@H](C1)[C@]23O: 0

Prompt: # query: drug sensitivity score of entry Cn1cnc2c(F)c(Nc3ccc(Br)cc3F)c(C(=O)NOCCO)cc21
Completion: 0

Prompt: Looking for the measured drug sensitivity score of CCNC(=O)c1noc(-c2cc(C(C)C)c(O)cc2O)c1-c1ccc(CN2CCOCC2)cc1 , can you help?
Completion: 9.04
